# protocol: Stability of cannabinoid compounds and Vitamin E components in Beverage 2 (AB Red) by LCMSMS
# Type: physicochemical
# recordedConditions: stored at 21-25° C., 17 days
Classify by measured Stability of Plant-Derived Cannabinoid Compounds in AB Red: true if it is equal to or exceeds 1 µg/mL, false if it is smaller.

compound: CCCCCc1cc2c(c(O)c1C(=O)O)[C@@H]1C=C(C)CC[C@H]1C(C)(C)O2 [D9 THCA, delta-9-tetrahydrocannabinolic acid]
classLabel: true
//
compound: C=C(C)[C@@H]1CCC(C)=C[C@H]1c1c(O)cc(CCCCC)c(C(=O)O)c1O [CBDA, cannabidiolic acid]
classLabel: true
//
compound: C=C(C)[C@@H]1CCC(C)=C[C@H]1c1c(O)cc(CCC)cc1O [CBDV, cannabidivarin]
classLabel: false
//
compound: CCCCCc1cc(O)c2c(c1)OC(C)(C)c1ccc(C)cc1-2 [CBN, cannabinol]
classLabel: true
//
compound: CCCCCc1cc(O)c(C/C=C(\C)CCC=C(C)C)c(O)c1 [CBG, cannabigerol]
classLabel: true
//
compound: CCCCCc1cc(O)c2c(c1)OC(C)(CCC=C(C)C)C=C2 (stereo not drawn) [CBC, cannabichromene]
classLabel: false
//
compound: CCCCCc1cc(O)c2c(c1)OC1(C)CCC3C1C2C3(C)C (stereo not drawn) [CBL, cannabicyclol]
classLabel: false
//
compound: CCCc1cc(O)c2c(c1)OC(C)(C)[C@@H]1CCC(C)=C[C@@H]21 [THCV, delta-9-tetrahydrocannabivarin]
classLabel: true
//
compound: CCCCCc1cc(O)c2c(c1)OC(C)(C)[C@@H]1CCC(C)=C[C@@H]21 [D9 THC, delta-9-tetrahydrocannabinol, reference compound]
classLabel: true
